- System: NCI-H460 lung
- measurement description: NCI tumour cell line growth inhibition, 48 h
observation type: TGI

// query Which measured TGI value corresponds to Cc1ccc2nc(CC(=O)c3ccc4ccccc4c3)c(=O)[nH]c2c1 ?
// result > 100 µM

// query Further, for Cc1ccc(C)c(N2C(=O)C(=O)c3c(C)ccc(C)c32)c1 ?
// result > 100 µM

// query Further, for c1ccc(C2=NN[C@H](c3cn(-c4ccccc4)nc3-c3ccccc3)C2)cc1 ?
// result > 100 µM

// query Further, for CN1CC(S(=O)(=O)c2ccccc2)CC(S(=O)(=O)c2ccccc2)C1c1ccccc1 (stereo not given) ?
// result 49.4 µM

// query Further, for NCC(=O)NC(CO)C(=O)O (stereo not given) ?
// result > 100 µM

// query Further, for CC(=O)O[C@H]1CC[C@@]2(C)C(=CC[C@H]3[C@@H]4C/C(=C\c5ccncc5)[C@H](OC(C)=O)[C@@]4(C)CC[C@@H]32)C1 ?
// result 24.4 µM

// query Further, for COc1ccc(N2C(=O)C3c4[nH]c5cc(Cl)ccc5c4C4CCC(C(C)(C)C)CC4C3C2=O)cc1 (stereo not given) ?
// result > 100 µM

// query Further, for CCCCCCCCCCCCCCC[C@@H](O)C[N+](C)(C)CCO ?
// result 5.01 µM

Continuing:
// query Which measured TGI value corresponds to Cc1n(-c2ccccc2)c2c([n+]1Cc1ccc([N+](=O)[O-])cc1)C(=O)c1ccccc1C2=O ?
// result 12.4 µM

// query Further, for CCc1cccc(CC)c1NC(=O)c1ccn2c1CCc1cnc(Nc3ccc(N4CCN(C)CC4)cc3OC)nc1-2 ?
// result 10.7 µM

// query Further, for COC(=O)C1=C(OC(=O)/C(=C/c2c(F)cccc2F)c2ccccc2)C(C(=O)OC)[C@@]2(O)[C@@H](C(=O)OC)[C@H](C)C[C@@H]1[C@@H]2C(=O)OC (stereo not given in full) ?
// result > 100 µM

// query Further, for NC(=O)OCC(COc1ccc(Cl)cc1)OC(=O)c1cc([N+](=O)[O-])cc([N+](=O)[O-])c1 (stereo not given) ?
// result > 100 µM

// query Further, for CC(=O)OC1CC(C)c2c(Cl)ncnc21 (stereo not given) ?
// result > 100 µM

// query Further, for O=c1c2ccccc2n2n1Cc1ccccc1C2 ?
// result > 100 µM

// query Further, for COc1ccc2[nH]cc(CN3CCC(CO)(c4ccccc4)CC3)c2c1 ?
// result > 100 µM

// query Further, for Nc1ccn(CC(CO)CC(c2ccccc2)P(=O)(O)O)c(=O)n1 (stereo not given) ?
// result > 100 µM

// query Further, for Cc1csc(-c2ccc3c(c2)COC3(CCCN(C)C)c2ccc(F)cc2)c1 (stereo not given) ?
// result 3.5 µM

// query Further, for Cc1cn(C2CC(N=[N+]=[N-])C(C(=O)O)O2)c(=O)[nH]c1=O (stereo not given) ?
// result > 100 µM

// query Further, for Nc1ccc(-c2nc3ccc(Cc4ccc5nc(-c6ccc(N)cc6)oc5c4)cc3o2)cc1 ?
// result > 100 µM

// query Further, for Cc1[nH]c2ccccc2c1C1=CC(=O)C=CC1=O ?
// result 42.2 µM

----------
The reader will find reported TGI values listed item by item below.
- System: DU-145 prostate
- measurement description: NCI tumour cell line growth inhibition, 48 h
Where a SMILES comes first, the peptide text is derived from it. The star is where a group is joined. Boc = CC(C)(C)OC(=O)*; OBn = c1ccc(CO*)cc1

Guide cases for TGI, answers given:
// query Which measured TGI value corresponds to COc1ccc(OC)c(-c2cc(C(=O)O)c3cc4ccccc4cc3n2)c1 ?
// result > 100 µM

// query Further, for CNc1ccc(C(=O)CC(O)CCC(C)C2OC(=O)CC(O)CC(=O)CC(O)CC(O)CC(O)CC(O)CC3(O)CC(O)C(C(=O)NCCc4ccccn4)C(CC(OC4OC(C)C(O)C(N)C4O)/C=C/C=C/C=C/C=C\C=C/C=C/C=C/C2C)O3)cc1 (centres undefined) ?
// result 0.672 µM

// query Further, for CC1=C(c2ccc(C)cc2)NC(=S)C(C)C(c2ccc(C)cc2)=N1 (centres undefined) ?
// result > 100 µM

// query Further, for c1ccc(C2=NN[C@H](c3cn(-c4ccccc4)nc3-c3ccccc3)C2)cc1 ?
// result > 100 µM

// query Further, for CSc1n[nH]c2n[nH]c(C)c12 ?
// result > 100 µM

Continuing:
// query Which measured TGI value corresponds to N#Cc1nc(C2SCCCS2)oc1N ?
// result > 100 µM

// query Further, for N#Cc1c(-c2ccccc2)c(C#N)c(=S)n(C2OCC(O)C(O)C2O)c1N (centres undefined) ?
// result > 100 µM

// query Further, for C[N+]1(CCCC[N+]2(C)CCCCCCC2)CCCCCCC1 ?
// result > 100 µM

// query Further, for CC(C)C(NC(=O)CNC(=O)C1CCCN1C(=O)C(NC(=O)OC(C)(C)C)C(C)C)C(=O)NCC(=O)OCc1ccccc1 (centres undefined) (Boc-VPGVG-OBn; configuration not given here) ?
// result > 100 µM

// query Further, for COc1ccc2cc(C(=O)/C=C/c3ccco3)ccc2c1 ?
// result 88.6 µM

----------
- Tested on: K-562 leukemia
- measurement description: NCI tumour cell line growth inhibition, 48 h
observation type: TGI

// query Which measured TGI value corresponds to Cc1ccc(C2SC(N)=Nc3c2c(C)nn3C(=O)c2ccc(Cl)cc2)cc1 (stereo unspecified) ?
// result > 10 µM

Continuing:
// query Which measured TGI value corresponds to C(=C\c1nc2ccccc2s1)/c1ccc(N2CCOCC2)s1 ?
// result > 100 µM

// query Further, for N#Cc1nc(NC(=O)c2ccccc2)sc1N ?
// result > 10 µM

// query Further, for N#Cc1nc(Nc2ccc(Cl)cc2)sc1N ?
// result 48.6 µM

// query Further, for CC(C(=O)N1C(=O)N(C(=O)[C@H](C)C(O)c2ccccc2)[C@H](c2ccccc2)[C@H]1c1ccccc1)[C@@H](O)c1ccccc1 (stereo partly specified) ?
// result > 100 µM

// query Further, for CC1=C2c3ccccc3N(S(=O)(=O)c3ccccc3)[C@H]2[C@H](C(=O)N2C3CC4CC[C@@]3(CS2(=O)=O)C4(C)C)CC1 (stereo partly specified) ?
// result > 100 µM

// query Further, for CC1OC(n2cc(I)c(=O)[nH]c2=O)C=CC1=O (stereo unspecified) ?
// result 18 µM

// query Further, for C=CCCCCn1c2ccccc2c2c(C)c3c[n+](C)ccc3c(C)c21 ?
// result 1.29 µM

----------
The reader will find reported TGI values listed item by item below.
- Test system: HOP-62 NSCLC
- measurement description: NCI tumour cell line growth inhibition, 48 h

// query Which measured TGI value corresponds to CCN(CC)c1nc(=O)c(C(=O)C(C)(C)C)c(C(C)(C)C)o1 ?
// result > 100 µM

// query Further, for CCNC(=O)c1ccc2c(c1)nc(-c1ccc(Cl)cc1)n2-c1cc(C(C)(C)C)[nH]n1 ?
// result 36.2 µM

----------
- System: M14 melanoma
- measurement description: NCI tumour cell line growth inhibition, 48 h
observation type: TGI

Guide cases for TGI, answers given:
// query Which measured TGI value corresponds to CCOC(=O)NC(C(C(=O)OCC)C(=O)OCC)(C(F)(F)F)C(F)(F)F ?
// result > 100 µM

// query Further, for O=C(Nc1cccc(-n2cc(-c3ccncc3)c(-c3ccc(O)c(Cl)c3)n2)c1)c1ccc(N2CCOCC2)c(C(F)(F)F)c1 ?
// result > 50 µM

// query Further, for COC(=O)CCSC1=CC(=O)c2nc3ccccc3c3ccnc1c23 ?
// result 47.2 µM

// query Further, for CC(=O)OC1CC(C)c2c(Cl)ncnc21 (centres undefined) ?
// result > 100 µM

// query Further, for NC(=O)OCC(COc1ccc(Cl)cc1)OC(=O)c1cc([N+](=O)[O-])cc([N+](=O)[O-])c1 (centres undefined) ?
// result > 100 µM

// query Further, for CCN(CC)CCNc1ccc2ncn3c4c(OC)ccc(=O)c4c(O)c1c23 ?
// result > 100 µM

// query Further, for C=CCOCn1ccc(NC(=O)c2ccccc2)nc1=O ?
// result > 100 µM

// query Further, for Cc1nc2sc(C(=O)Nc3cccc(Cl)c3C)c(N)c2cc1C(=O)c1ccccc1 ?
// result > 50 µM

Next, consider the following compound.
// query Which measured TGI value corresponds to O=c1nc(-c2ccccc2)scc1-c1ccccc1 ?
// result > 100 µM

----------
- System: IGROV1 ovarian
- measurement description: NCI tumour cell line growth inhibition, 48 h
The reader will find reported TGI values listed item by item below.

// query Which measured TGI value corresponds to C=CCN1C[C@@H](C)N([C@@H](c2ccccc2)c2ccc(C(=O)N(CC)CC)cc2)C[C@@H]1C ?
// result > 100 µM

// query Further, for O=C1CSC(c2ccccc2[N+](=O)[O-])N1c1ccc(-n2c(-c3ccccc3)nc3ccccc3c2=O)cc1 (stereo not given) ?
// result > 100 µM

// query Further, for O=C(O)C1CCCCC1C(=O)Nc1nc2ccccc2[nH]1 (stereo not given) ?
// result > 100 µM

// query Further, for COc1cc(C(=O)Nc2cc(O)c(C/C=C(\C)CCC=C(C)C)c(O)c2)cc2c1O[C@]1(C)CC[C@@H](O)C(C)(C)[C@H]1C2 ?
// result 19.5 µM

// query Further, for CCN(CC)C(=O)N[C@@H](Cc1ccccc1)C(=O)NC ?
// result > 100 µM

// query Further, for CO[C@]12CCC(=O)N1C=Cc1c2[nH]c2ccccc12 ?
// result > 100 µM

Data provenance is PubChem BioAssay (NCI).
